# experimental-details: Acute toxicity in po dosed ICR mouse assessed as mortality after 10 days
# Assay type: organism-based
# test-conditions: in vivo
reported-endpoint: LD50 at 240 h (mg/kg)
Answers are plain numbers, in mg/kg.

Note LD50 at 240 h for the molecule shown: `CC(C)(CO)Cn1ncn(-c2ccc(N3CCN(c4ccc(OC[C@H]5CO[C@](Cn6cncn6)(c6ccc(F)cc6F)O5)cc4)CC3)cn2)c1=O` 278

* * *

So I've got a bunch of compounds here, and I need their half-life values.
# experimental-details: Half life in rat at 10 mg/kg, po administered as single dose
# Assay type: ADME, organism-based
# Design: dose 10 mg/kg, route oral
# test-conditions: in vivo
Give bare numbers, in h.

See these solved cases before continuing.
CC(C)Cn1ncn(-c2ccc(N3CCN(c4ccc(OC[C@H]5CO[C@](Cn6cncn6)(c6ccc(F)cc6F)O5)cc4)CC3)nc2)c1=O = 2.18
CC(C)n1ncn(-c2ccc(N3CCN(c4ccc(OC[C@H]5CO[C@](Cn6cncn6)(c6ccc(F)cc6F)O5)cc4)CC3)nc2)c1=O = 1.26
CC(C)n1ncn(-c2ccc(N3CCN(c4ccc(OC[C@H]5CO[C@](Cn6cncn6)(c6ccc(F)cc6F)O5)cc4)CC3)cn2)c1=O = 3.45
CC(C)(CO)Cn1ncn(-c2ccc(N3CCN(c4ccc(OC[C@H]5CO[C@](Cn6cncn6)(c6ccc(F)cc6F)O5)cc4)CC3)cn2)c1=O = 3.41

Now for the compound whose half-life we want.
Note half-life for the compound shown: CCC(C)n1ncn(-c2ccc(N3CCN(c4ccc(OCC5COC(Cn6cncn6)(c6ccc(Cl)cc6Cl)O5)cc4)CC3)cc2)c1=O (stereo not given) 2.57

* * *

# experimental-details: Clearance in rat at 5 mg/kg, iv administered as single dose
# Assay type: ADME, organism-based
# Set-up: dose 5 mg/kg, route intravenous
# test-conditions: in vivo
reported-endpoint: clearance (mL/min/kg)
One number for each entry, in mL/min/kg.

Note clearance for the molecule shown: `CC(C)Cn1ncn(-c2ccc(N3CCN(c4ccc(OC[C@H]5CO[C@](Cn6cncn6)(c6ccc(F)cc6F)O5)cc4)CC3)nc2)c1=O` 23.5

* * *

# experimental-details: Solubility of the compound in water at pH 1.2
# Type: physicochemical
# test-conditions: water, read-out: solubility
So I've got a bunch of compounds here, and I need their solubility values.
One number for each entry, in µg/mL.

Dear colleague, could you please provide solubility for the compounds listed below?
1. CC(C)(CO)Cn1ncn(-c2ccc(N3CCN(c4ccc(OC[C@H]5CO[C@](Cn6cncn6)(c6ccc(F)cc6F)O5)cc4)CC3)cn2)c1=O
2. CC(C)Cn1ncn(-c2ccc(N3CCN(c4ccc(OC[C@H]5CO[C@](Cn6cncn6)(c6ccc(F)cc6F)O5)cc4)CC3)nc2)c1=O

1: 190; 2: 2330

Dear colleague, could you please provide solubility for the compounds listed below?
1. CC(C)n1ncn(-c2ccc(N3CCN(c4ccc(OC[C@H]5CO[C@](Cn6cncn6)(c6ccc(F)cc6F)O5)cc4)CC3)nc2)c1=O
2. CC(C)n1ncn(-c2ccc(N3CCN(c4ccc(OC[C@H]5CO[C@](Cn6cncn6)(c6ccc(F)cc6F)O5)cc4)CC3)cn2)c1=O

1680
320

* * *

# experimental-details: AUC (0 to t) in rat at 10 mg/kg, po administered as single dose
# Format: ADME, organism-based
# Parameters: dose 10 mg/kg, route oral
# test-conditions: plasma
reported-endpoint: log10 AUC(0-t) (log10 of the value in µg·h/mL)
Base-10 log of AUC(0-t), unit µg·h/mL.

CC(C)Cn1ncn(-c2ccc(N3CCN(c4ccc(OC[C@H]5CO[C@](Cn6cncn6)(c6ccc(F)cc6F)O5)cc4)CC3)nc2)c1=O = 0.21
CC(C)n1ncn(-c2ccc(N3CCN(c4ccc(OC[C@H]5CO[C@](Cn6cncn6)(c6ccc(F)cc6F)O5)cc4)CC3)cn2)c1=O = 0.09
CC(C)n1ncn(-c2ccc(N3CCN(c4ccc(OC[C@H]5CO[C@](Cn6cncn6)(c6ccc(F)cc6F)O5)cc4)CC3)nc2)c1=O = 0.43

Dear colleague, could you please provide log10 AUC(0-t) for the compounds listed below?
1. CCC(C)n1ncn(-c2ccc(N3CCN(c4ccc(OCC5COC(Cn6cncn6)(c6ccc(Cl)cc6Cl)O5)cc4)CC3)cc2)c1=O (stereo not given) [ITRACONAZOLE]
2. CC(C)(CO)Cn1ncn(-c2ccc(N3CCN(c4ccc(OC[C@H]5CO[C@](Cn6cncn6)(c6ccc(F)cc6F)O5)cc4)CC3)cn2)c1=O

-1.56
0.28

* * *

# Test system: Cryptococcus neoformans
# experimental-details: Antifungal activity against Cryptococcus neoformans JLC 50123 by broth microdilution method
# Assay type: functional
So I've got a bunch of compounds here, and I need their MIC values.

See these solved cases before continuing.
CC(CCO)n1ncn(-c2ccc(N3CCN(c4ccc(OC[C@H]5CO[C@](Cn6cncn6)(c6ccc(F)cc6F)O5)cc4)CC3)nc2)c1=O (some centres not stated) = 0.0625 µg/mL
CCC(C)n1ncn(-c2ccc(N3CCN(c4ccc(OC[C@H]5CO[C@](Cn6cncn6)(c6ccc(F)cc6F)O5)cc4)CC3)cn2)c1=O (some centres not stated) = 1 µg/mL
CC(C)(CO)Cn1ncn(-c2ccc(N3CCN(c4ccc(OC[C@H]5CO[C@](Cn6cncn6)(c6ccc(F)cc6F)O5)cc4)CC3)cn2)c1=O = < 0.0156 µg/mL
CC(CO)n1ncn(-c2ccc(N3CCN(c4ccc(OC[C@H]5CO[C@](Cn6cncn6)(c6ccc(F)cc6F)O5)cc4)CC3)cn2)c1=O (some centres not stated) = 0.0625 µg/mL
CC(C)n1ncn(-c2ccc(N3CCN(c4ccc(OC[C@H]5CO[C@](Cn6cncn6)(c6ccc(F)cc6F)O5)cc4)CC3)cn2)c1=O = 0.25 µg/mL
O=c1n(-c2ccc(N3CCN(c4ccc(OC[C@H]5CO[C@](Cn6cncn6)(c6ccc(F)cc6F)O5)cc4)CC3)nc2)cnn1CCCO = < 0.0625 µg/mL

Now for the compound whose MIC we want.
Note MIC for the compound shown: `CC(C)Cn1ncn(-c2ccc(N3CCN(c4ccc(OC[C@H]5CO[C@](Cn6cncn6)(c6ccc(F)cc6F)O5)cc4)CC3)cn2)c1=O` 0.25 µg/mL

* * *

# System: Candida albicans
# experimental-details: Antifungal activity against Candida albicans JLC 31374 by broth microdilution method
# Assay type: functional
So I've got a bunch of compounds here, and I need their MIC values.
Answers are plain numbers, in µg/mL.

CC(CO)n1ncn(-c2ccc(N3CCN(c4ccc(OC[C@H]5CO[C@](Cn6cncn6)(c6ccc(F)cc6F)O5)cc4)CC3)cn2)c1=O (some centres undefined) = 0.0625

Dear colleague, could you please provide MIC for the compounds listed below?
1. CCC(C)n1ncn(-c2ccc(N3CCN(c4ccc(OC[C@H]5CO[C@](Cn6cncn6)(c6ccc(F)cc6F)O5)cc4)CC3)cn2)c1=O (some centres undefined)
2. CCC(CC)n1ncn(-c2ccc(N3CCN(c4ccc(OC[C@H]5CO[C@](Cn6cncn6)(c6ccc(F)cc6F)O5)cc4)CC3)cn2)c1=O

0.03
0.0625

* * *

# System: Cryptococcus neoformans
# experimental-details: Antifungal activity against Cryptococcus neoformans JLC 50123 by broth microdilution method
# Type: functional
reported-endpoint: MIC (µg/mL)
One number for each entry, in µg/mL.

Dear colleague, could you please provide MIC for the molecules listed below?
1. CCC(C)n1ncn(-c2ccc(N3CCN(c4ccc(OCC5COC(Cn6cncn6)(c6ccc(Cl)cc6Cl)O5)cc4)CC3)cc2)c1=O (centres undefined)
2. O=c1n(-c2ccc(N3CCN(c4ccc(OC[C@H]5CO[C@](Cn6cncn6)(c6ccc(F)cc6F)O5)cc4)CC3)nc2)cnn1Cc1ccccc1
3. CC(C)Cn1ncn(-c2ccc(N3CCN(c4ccc(OC[C@H]5CO[C@](Cn6cncn6)(c6ccc(F)cc6F)O5)cc4)CC3)nc2)c1=O

[1, 0.25, 0.5]

* * *

So I've got a bunch of molecules here, and I need their log10 of MIC values.
# Test system: Pichia kudriavzevii
# experimental-details: Antifungal activity against Candida krusei JLC 30386 by broth microdilution method
# Assay type: functional
Base-10 log of MIC, unit µg/mL.

See these solved cases before continuing.
CCC(C)n1ncn(-c2ccc(N3CCN(c4ccc(OCC5COC(Cn6cncn6)(c6ccc(Cl)cc6Cl)O5)cc4)CC3)cc2)c1=O (stereo not drawn) = -1.20
O=c1n(-c2ccc(N3CCN(c4ccc(OC[C@H]5CO[C@](Cn6cncn6)(c6ccc(F)cc6F)O5)cc4)CC3)nc2)cnn1CCCO = -1.20
CC(CO)n1ncn(-c2ccc(N3CCN(c4ccc(OC[C@H]5CO[C@](Cn6cncn6)(c6ccc(F)cc6F)O5)cc4)CC3)cn2)c1=O (stereo partly drawn) = -1.20
CC(C)Cn1ncn(-c2ccc(N3CCN(c4ccc(OC[C@H]5CO[C@](Cn6cncn6)(c6ccc(F)cc6F)O5)cc4)CC3)cn2)c1=O = -0.90

Dear colleague, could you please provide log10 of MIC for the molecules listed below?
1. CCC(C)n1ncn(-c2ccc(N3CCN(c4ccc(OC[C@H]5CO[C@](Cn6cncn6)(c6ccc(F)cc6F)O5)cc4)CC3)cn2)c1=O (stereo partly drawn)
2. CC(C)(CO)Cn1ncn(-c2ccc(N3CCN(c4ccc(OC[C@H]5CO[C@](Cn6cncn6)(c6ccc(F)cc6F)O5)cc4)CC3)nc2)c1=O
3. CC(C)n1ncn(-c2ccc(N3CCN(c4ccc(OC[C@H]5CO[C@](Cn6cncn6)(c6ccc(F)cc6F)O5)cc4)CC3)nc2)c1=O

1: -1.20; 2: -0.60; 3: -1.20
